# Experimental target: T1, Abz-LPETGK(Dnp)-CONH2
# T1 chain: LPETGK
Non-standard residues stand in square brackets, D forms with d. No end group written: not given here. *: point of attachment. Dnp = O=[N+]([O-])c1ccc(*)c([N+](=O)[O-])c1; 2Abz = Nc1ccccc1C(=O)O
Listing of entries alongside the reported kcat/Km.
Express it in M⁻¹ s⁻¹; write the number only.

Some proteins with recorded kcat/Km:
{"columns": ["Protein", "Result type", "Assay result"],
 "data": [
  ["eSrtA(4S-9) (protein) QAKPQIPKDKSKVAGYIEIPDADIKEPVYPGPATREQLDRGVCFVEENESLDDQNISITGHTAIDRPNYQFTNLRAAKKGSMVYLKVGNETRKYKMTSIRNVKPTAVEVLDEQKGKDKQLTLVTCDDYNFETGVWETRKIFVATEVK", "kcat/Km", 720],
  ["wild-type S. aureus sortase A (protein) QAKPQIPKDKSKVAGYIEIPDADIKEPVYPGPATPEQLNRGVSFAEENESLDDQNISIAGHTFIDRPNYQFTNLKAAKKGSMVYFKVGNETRKYKMTSIRDVKPTDVEVLDEQKGKDKQLTLITCDDYNEKTGVWEKRKIFVATEVK", "kcat/Km", 200],
  ["eSrtA(2A-9) (protein) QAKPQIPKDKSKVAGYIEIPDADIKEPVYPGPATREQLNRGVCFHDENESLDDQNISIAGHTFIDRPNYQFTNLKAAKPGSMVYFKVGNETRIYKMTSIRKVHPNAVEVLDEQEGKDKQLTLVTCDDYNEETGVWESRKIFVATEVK", "kcat/Km", 16.5]
]}

Prompt line: Could you share which kcat/Km value was measured for evolved sortase A (eSrtA) (enzyme) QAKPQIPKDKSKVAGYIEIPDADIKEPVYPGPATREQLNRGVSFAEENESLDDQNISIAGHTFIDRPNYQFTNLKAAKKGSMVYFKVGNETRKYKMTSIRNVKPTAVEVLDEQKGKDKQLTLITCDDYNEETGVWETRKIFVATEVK ?
Response line: 23000
